molecular target: Peroxisome proliferator-activated receptor alpha (Homo sapiens); assay: Agonist activity at Gal4-fused PPARalpha expressed in HEK293 cells after 18 hrs by dual luciferase reporter gene assay relative to gemfibrozil; format: functional, cell-based
Sequence (Q07869 whole entry, the tested form may be a part): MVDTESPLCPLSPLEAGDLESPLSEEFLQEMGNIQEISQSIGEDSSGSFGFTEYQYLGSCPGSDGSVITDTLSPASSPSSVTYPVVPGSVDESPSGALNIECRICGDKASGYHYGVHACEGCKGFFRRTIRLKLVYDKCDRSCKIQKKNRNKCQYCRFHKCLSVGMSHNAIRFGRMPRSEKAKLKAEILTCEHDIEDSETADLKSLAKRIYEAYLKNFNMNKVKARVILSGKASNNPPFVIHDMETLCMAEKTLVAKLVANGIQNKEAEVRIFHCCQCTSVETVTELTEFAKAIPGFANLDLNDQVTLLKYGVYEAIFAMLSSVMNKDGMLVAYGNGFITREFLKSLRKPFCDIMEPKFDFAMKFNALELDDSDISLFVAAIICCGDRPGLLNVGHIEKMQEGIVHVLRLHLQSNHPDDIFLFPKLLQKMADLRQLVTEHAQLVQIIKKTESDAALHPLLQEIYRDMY
Each entry below carries its reported Efficacy.
experimentalEndpoint: Efficacy (%)

{"structureSmilesString": "CC(C)(CCCOc1ccc(C(=O)/C=C/c2ccccc2)cc1)C(=O)O", "testSystem": "Peroxisome proliferator-activated receptor alpha (Homo sapiens)", "experimentalEndpoint": "Efficacy", "experimentalValue": 165}
{"structureSmilesString": "CC(C)(CCCOc1ccc(/N=N/c2ccccc2)cc1)C(=O)O", "testSystem": "Peroxisome proliferator-activated receptor alpha (Homo sapiens)", "experimentalEndpoint": "Efficacy", "experimentalValue": 76}
{"structureSmilesString": "O=C(O)CCCCOc1ccc(/C=C/c2ccccc2)cc1", "testSystem": "Peroxisome proliferator-activated receptor alpha (Homo sapiens)", "experimentalEndpoint": "Efficacy", "experimentalValue": 206}
{"structureSmilesString": "O=C(O)CCCCOc1ccc(C(=O)c2ccccc2)cc1", "testSystem": "Peroxisome proliferator-activated receptor alpha (Homo sapiens)", "experimentalEndpoint": "Efficacy", "experimentalValue": 123}
{"structureSmilesString": "CC(C)(CCCOc1ccc(Oc2ccccc2)cc1)C(=O)O", "testSystem": "Peroxisome proliferator-activated receptor alpha (Homo sapiens)", "experimentalEndpoint": "Efficacy", "experimentalValue": 118}
{"structureSmilesString": "CC(C)(CCCOc1ccc(C(=O)c2ccccc2)cc1)C(=O)O", "testSystem": "Peroxisome proliferator-activated receptor alpha (Homo sapiens)", "experimentalEndpoint": "Efficacy", "experimentalValue": 82}
{"structureSmilesString": "CC(C)(CCCOc1ccc(/C=C/c2ccccc2)cc1)C(=O)O", "testSystem": "Peroxisome proliferator-activated receptor alpha (Homo sapiens)", "experimentalEndpoint": "Efficacy", "experimentalValue": 223}
{"structureSmilesString": "C=CCc1ccc(OCCCCC(=O)O)c(OC)c1", "testSystem": "Peroxisome proliferator-activated receptor alpha (Homo sapiens)", "experimentalEndpoint": "Efficacy", "experimentalValue": 94}
{"structureSmilesString": "O=C(O)CCCCOc1ccc(NC(=O)Nc2ccccc2)cc1", "testSystem": "Peroxisome proliferator-activated receptor alpha (Homo sapiens)", "experimentalEndpoint": "Efficacy", "experimentalValue": 106}
{"structureSmilesString": "O=C(O)CCCCOc1ccc(C(=O)/C=C/c2ccccc2)cc1", "testSystem": "Peroxisome proliferator-activated receptor alpha (Homo sapiens)", "experimentalEndpoint": "Efficacy", "experimentalValue": 235}
{"structureSmilesString": "C=CCc1ccc(OCCCC(C)(C)C(=O)O)c(OC)c1", "testSystem": "Peroxisome proliferator-activated receptor alpha (Homo sapiens)", "experimentalEndpoint": "Efficacy", "experimentalValue": 117}

###

target: Peroxisome proliferator-activated receptor alpha (Homo sapiens); experiment: Agonist activity at PPARalpha in human HepG2 cells assessed as upregulation of CPT1a mRNA expression at 0.1 to 100 uM after 24 hrs by quantitative RT-PCR analysis; assay type: functional, cell-based
Active and inactive are the calls of the source. No cut-off for these calls is given here.

{"structureSmilesString": "C=CCc1ccc(OCCCC(C)(C)C(=O)O)c(OC)c1", "Activity": "inactive"}
{"structureSmilesString": "C=CCc1ccc(OCCCCC(=O)O)c(OC)c1", "Activity": "inactive"}
{"structureSmilesString": "O=C(O)CCCCOc1ccc(NC(=O)Nc2ccccc2)cc1", "Activity": "inactive"}

###

molecular target: Peroxisome proliferator-activated receptor alpha (Homo sapiens); test: Agonist activity at Gal4-fused PPARalpha expressed in HEK293 cells after 18 hrs by dual luciferase reporter gene assay; assay type: functional, cell-based; details: read-out: EC50
Decide using EC50 alone. Strictly below 20 µM: Criterion met. Equal to or above 20 µM: Criterion not met.

{"structureSmilesString": "CC(C)(CCCOc1ccc(/C=C/c2ccccc2)cc1)C(=O)O", "label": "Criterion met"}
{"structureSmilesString": "CC(C)(CCCOc1ccc(Oc2ccccc2)cc1)C(=O)O", "label": "Criterion met"}
{"structureSmilesString": "CC(C)(CCCOc1ccc(C(=O)c2ccccc2)cc1)C(=O)O", "label": "Criterion met"}
{"structureSmilesString": "CC(C)(CCCOc1ccc(/N=N/c2ccccc2)cc1)C(=O)O", "label": "Criterion not met"}
{"structureSmilesString": "O=C(O)CCCCOc1ccc(NC(=O)Nc2ccccc2)cc1", "label": "Criterion met"}
{"structureSmilesString": "C=CCc1ccc(OCCCCC(=O)O)c(OC)c1", "label": "Criterion met"}
{"structureSmilesString": "O=C(O)CCCCOc1ccc(/C=C/c2ccccc2)cc1", "label": "Criterion met"}
{"structureSmilesString": "Cc1ccc(C)c(OCCCC(C)(C)C(=O)O)c1", "label": "Criterion not met"}
{"structureSmilesString": "C=CCc1ccc(OCCCC(C)(C)C(=O)O)c(OC)c1", "label": "Criterion met"}
{"structureSmilesString": "O=C(O)CCCCOc1ccc(C(=O)/C=C/c2ccccc2)cc1", "label": "Criterion not met"}
{"structureSmilesString": "O=C(O)CCCCOc1ccc(C(=O)c2ccccc2)cc1", "label": "Criterion not met"}
{"structureSmilesString": "CC(C)(CCCOc1ccc(C(=O)/C=C/c2ccccc2)cc1)C(=O)O", "label": "Criterion not met"}
